procedure-text: Intrinsic clearance in rat hepatocytes assessed per million cells at 1 uM measured after 2 to 60 mins by LC-MS/MS analysis
Format: ADME, cell-based, Hepatocyte
protocol-conditions: read-out: CLH
API: label(entry) gives true if the entry's hepatocyte CLint at 1 µM is strictly smaller than 10 µL/min/1e6 cells; on equality or larger values it gives false.

{"columns": ["chemical-string", "qualitative-label"],
 "data": [
  ["Cc1cc(-c2ccc(C(=O)[C@@H]3CCCC[C@H]3C(=O)Nc3cnn(C)c3S(N)(=O)=O)cc2)[nH]n1", "true"],
  ["Cc1cc(-c2ccc(C(=O)[C@@H]3CCCC[C@H]3C(=O)Nc3cnn(C)c3C(N)=O)cc2)[nH]n1", "true"],
  ["Cc1cc(-c2ccc(C(=O)[C@@H]3CCCC[C@H]3C(=O)Nc3c(C)nn(C)c3C(N)=O)cc2)n[nH]1", "true"],
  ["Cc1cc(-c2ccc(C(=O)[C@@H]3CCCC[C@H]3C(=O)Nc3cnn4c3C(=O)NCC4)cc2)[nH]n1", "false"],
  ["CCn1ncc(NC(=O)[C@@H]2CCCC[C@H]2C(=O)c2ccc(-c3cc(C)n[nH]3)cc2)c1C(N)=O", "true"]
]}
